Quick list: rel T per entry.
Test system: Nucleic Acid
Assay: Time constant of slowest dissociation step of drug from DNA complex
Type: functional
*1 amine or outer side, *2 acyl side, *3 side chain or, on linkers, in order; H or OH if unused. Where a SMILES comes first, the peptide text is derived from it. Bridges are numbered along the chain shown (N, C = ends). Roman numbers before positions name the chains, in order. [ ]: non-standard residue; d: D form. Actinocin(9to1) = Cc1c2oc3c(C)ccc(C(=O)[*:1])c3nc-2c(C(=O)[*:2])c(N)c1=O; NMeV = CN[C@H](C(=O)O)C(C)C; Sar = CNCC(=O)O
Property name: rel T

INSERT INTO measurements (compound, assayed_system, result) VALUES
  ('Cc1c2oc3c(C)ccc(C(=O)N[C@@H]4C(=O)N[C@H](C(C)C)C(=O)N5CCC[C@H]5C(=O)N(C)CC(=O)N(C)[C@@H](C(C)C)C(=O)O[C@@H]4C)c3nc-2c(C(=O)N[C@@H]2C(=O)N[C@H](C(C)C)C(=O)N3CCC[C@H]3C(=O)N(C)CC(=O)N(C)[C@@H](C(C)C)C(=O)O[C@@H]2C)c(N)c1=O (I: T[dV]P[Sar][NMeV] / II: T[dV]P[Sar][NMeV]; ester I:1-I:C, II:1-II:C; linker I:N-II:N via Actinocin(9to1))', 'Nucleic Acid', 100),
  ('Cc1c2oc3c(C)c(O)c(N)c(C(=O)N4OC(=O)[C@H](C(C)C)N(C)C(=O)CCNC(=O)[C@@H]5CCCN5C(=O)[C@H](C(C)C)NC(=O)[C@@H]4[C@@H](C)O)c3nc-2c(C(=O)N2OC(=O)[C@H](C(C)C)N(C)C(=O)CCNC(=O)[C@@H]3CCCN3C(=O)[C@H](C(C)C)NC(=O)[C@@H]2[C@@H](C)O)cc1=N', 'Nucleic Acid', 125),
  ('Cc1c2oc3c(C)c(O)c(N)c(C(=O)N4OC(=O)[C@H](C(C)C)N(C)C(=O)CCNC(=O)[C@@H]5CCCN5C(=O)[C@H](C(C)C)NC(=O)[C@@H]4[C@@H](C)O)c3nc-2c(C(=O)N2OC(=O)[C@H](C(C)C)N(C)C(=O)CCNC(=O)[C@@H]3CCCN3C(=O)[C@H](C(C)C)NC(=O)[C@@H]2[C@@H](C)O)c/c1=N/Cc1ccc(Cl)c(Cl)c1', 'Nucleic Acid', 60),
  ('Cc1c2oc3c(C)c(O)c(N)c(C(=O)N4OC(=O)[C@H](C(C)C)N(C)C(=O)CCNC(=O)[C@@H]5CCCN5C(=O)[C@H](C(C)C)NC(=O)[C@@H]4[C@@H](C)O)c3nc-2c(C(=O)N2OC(=O)[C@H](C(C)C)N(C)C(=O)CCNC(=O)[C@@H]3CCCN3C(=O)[C@H](C(C)C)NC(=O)[C@@H]2[C@@H](C)O)c/c1=N/Cc1ccc[nH]1', 'Nucleic Acid', 225);

The origin of these recorded values is ChEMBL document CHEMBL1122353.
